Target or system Bradykinin-1 receptor (Homo sapiens (Human)): recorded Ki listed per item.
Reply with just the number (in nM).

Query: What value of measured Ki is listed for Cc1nc(-c2c(F)cc(Cl)cc2-c2ccc3c(c2)CC[C@@H]3NC(=O)C2(NC(=O)c3cncnc3)CC2)no1 [Example 25] ?
Result: 3.1

Query: Also, Cc1nc(-c2c(F)cc(Cl)cc2-c2cnc3c(c2)CCC3NC(=O)C2(NC(=O)OC(C)(C)C)CC2)no1 (racemic) [Example 36] please.
Result: 361

Query: Also, COc1ncc(C(=O)NC2(C(=O)NC3CCc4cc(-c5cc(Cl)cc(F)c5-c5nnn(C)n5)cnc43)CC2)cn1 (racemic) [Example 56] please.
Result: 4.5

Query: Also, Cn1nnc(-c2c(F)cc(Cl)cc2-c2ccc3c(c2)CCC3(C)NC(=O)C2(NC(=O)C(F)(F)F)CC2)n1 (racemic) [Example 18] please.
Result: 6.7

---

// values below are reported IC50
- Tested target: Bradykinin-1 receptor (Homo sapiens (Human))
- Test description: Calcium mobilization assay (FLIPR, Fluo-4) in GeneBLAzer Bradykinin (B1)-NFAT-bla CHO-K1 cells
- Condition label: antagonist activity; CHO-K1 cells stably overexpressing the human bradykinin 1 receptor; read-out: Ca mobilization Assay IC50
Reply with just the number (in nM).

Example results:
COc1cc(C(=O)NC2(C(=O)NC3CSc4cc(-c5cc(Cl)cc(F)c5-c5nnn(C)n5)ccc43)CC2)on1 (racemic) | 0.2
Cn1nnc(-c2c(F)cc(Cl)cc2-c2ccc3c(c2)CC[C@@H]3NC(=O)C2(NC(=O)C(F)(F)F)COC2)n1 | 24.4
Cn1nnc(-c2c(F)cc(Cl)cc2-c2ccc3c(c2)OCCC3NC(=O)C2(NC(=O)C(F)(F)F)CC2)n1 (racemic) | 24.6

Query: What value of measured IC50 is listed for Cn1nnc(-c2c(F)cc(Cl)cc2-c2ccc3c(c2)CCC3(C)NC(=O)C2(NC(=O)C(F)(F)F)CC2)n1 (racemic) ?
Result: 0.5

Query: Also, Cn1nnc(-c2c(F)cc(Cl)cc2-c2cnc3c(c2)CCC3NC(=O)C2(NC(=O)OC(C)(C)C)CC2)n1 (racemic) please.
Result: 5.8

Query: Also, Cc1nc(-c2c(F)cc(Cl)cc2-c2ccc3c(c2)CCC3NC(=O)C2(NC(=O)C(F)(F)F)CC2)no1 (racemic) please.
Result: 2

Query: Also, Cc1nc(-c2c(F)cc(Cl)cc2-c2ccc3c(c2)CC[C@@H]3NC(=O)C2(NC(=O)c3ccnnc3)CC2)no1 please.
Result: 0.4

Query: Also, Cc1nc(-c2c(F)cc(Cl)cc2-c2ccc3c(c2)CC[C@@H]3NC(=O)C2(NC(=O)c3ccno3)COC2)no1 please.
Result: 2.7

Query: Also, Cc1nc(-c2c(F)cc(Cl)cc2-c2ccc3c(c2)CC[C@@H]3NC(=O)C2(NC(=O)c3cncnc3)CC2)no1 please.
Result: 0.1

Query: Also, COC(=O)c1c(Cl)cccc1-c1ccc2c(c1)CCC2NC(=O)C1(NC(=O)C(F)(F)F)CC1 (racemic) please.
Result: 47.4

---

- Tested target: Bradykinin-1 receptor (Homo sapiens (Human), UniProt P46663)
- Sequence (P46663 whole entry): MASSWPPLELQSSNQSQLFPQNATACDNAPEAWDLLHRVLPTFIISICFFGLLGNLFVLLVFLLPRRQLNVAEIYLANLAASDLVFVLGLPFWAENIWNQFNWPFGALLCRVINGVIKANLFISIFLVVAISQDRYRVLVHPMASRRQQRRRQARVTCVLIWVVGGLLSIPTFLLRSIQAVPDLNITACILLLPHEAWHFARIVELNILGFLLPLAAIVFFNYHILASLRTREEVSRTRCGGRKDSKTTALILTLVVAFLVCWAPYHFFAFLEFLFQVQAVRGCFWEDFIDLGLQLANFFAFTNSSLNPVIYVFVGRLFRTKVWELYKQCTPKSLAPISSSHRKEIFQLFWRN
- Test description: Calcium mobilization assay (FLIPR, Fluo-4) in GeneBLAzer Bradykinin (B1)-NFAT-bla CHO-K1 cells
- Condition label: antagonist activity; CHO-K1 cells stably overexpressing the human bradykinin 1 receptor; read-out: Ca mobilization Assay IC50
- Experimental: Calcium Mobilization Assay […] Test compounds were added to the assay plate and agonist activity was monitored as fluorescence for 80 seconds with a FLIPR (488 nm excitation; 510-570 nm emission; Molecular Devices). After 20-30 min. of incubation at 30° C., 20 nM […] (R&D; Roche) was added and fluorescence was monitored again for 80 seconds. Increases in intracellular calcium are reported as maximum fluorescence after agonist exposure minus basal fluorescence before exposure.
// values below are reported pIC50
# reply with the number alone; pIC50 is -log10 of concentration in mol/L

Cc1cc(C(=O)NC2(C(=O)NC3CCc4cc(-c5cc(Cl)cc(F)c5-c5nnn(C)n5)cnc43)CC2)on1 (racemic) | 9.40
Cc1nc(-c2c(F)cc(Cl)cc2-c2cnc3c(c2)CCC3NC(=O)C2(N)CC2)no1 (racemic) | 6.52
COc1cc(C(=O)NC2(C(=O)N[C@H]3CCc4cc(-c5cc(Cl)cc(F)c5-c5noc(C)n5)ccc43)CC2)on1 | 10.00

Now turn to the next compound.
Query: What value of measured pIC50 is listed for COc1cc(C(=O)NC2(C(=O)NC3CCc4cc(-c5cc(Cl)cc(F)c5-c5nnn(C)n5)cnc43)CC2)on1 (racemic) ?
Result: 9.52

---

- Tested target: Bradykinin-1 receptor (Homo sapiens (Human), UniProt P46663)
- Test description: Calcium mobilization assay (FLIPR, Fluo-4) in GeneBLAzer Bradykinin (B1)-NFAT-bla CHO-K1 cells
- Condition label: antagonist activity; CHO-K1 cells stably overexpressing the human bradykinin 1 receptor; read-out: Ca mobilization Assay IC50
Measured metric: IC50 (nM)
Reply with just the number (in nM).

Cc1nc(-c2c(F)cc(Cl)cc2-c2ccc3c(c2)CC[C@@H]3NC(=O)C2(NC(=O)C(F)(F)F)CC2)no1 | 0.6
Cn1nnc(-c2c(F)cc(Cl)cc2-c2ccc3c(c2)SCC3NC(=O)C2(NC(=O)C(F)(F)F)CC2)n1 (racemic) | 0.8
Cc1nc(-c2c(F)cc(Cl)cc2-c2cc(F)c3c(c2)CCC3NC(=O)C2(NC(=O)OC(C)(C)C)CC2)no1 (racemic) | 135

Now turn to the next compound.
Query: What value of measured IC50 is listed for Cc1nc(-c2c(F)cc(Cl)cc2-c2cnc3c(c2)CCC3NC(=O)C2(NC(=O)c3ccnnc3)CC2)no1 (single isomer, unassigned) [Example 40] ?
Result: 35.2

---

Target or system UniProt:P46663: recorded Ki listed per item.
Reply with just the number (in nM).

Query: What value of measured Ki is listed for Cc1nc(-c2c(F)cc(Cl)cc2-c2cc(F)c3c(c2)CCC3NC(=O)C2(NC(=O)C(F)(F)F)CC2)no1 (racemic) [Example 16] ?
Result: 11

Query: Also, COc1ncc(C(=O)NC2(C(=O)NC3COc4cc(-c5cc(Cl)cc(F)c5-c5noc(C)n5)ccc43)CC2)cn1 (racemic) [Example 47] please.
Result: 5.4

Query: Also, COC(=O)c1ccccc1-c1ccc2c(c1)CCC2NC(=O)C1(NC(=O)C(F)(F)F)CC1 (racemic) [Example 1] please.
Result: 2170

Query: Also, Cc1nc(-c2c(F)cc(Cl)cc2-c2cnc3c(c2)CCC3NC(=O)C2(NC(=O)c3ccnnc3)CC2)no1 (single isomer, unassigned) [Example 40] please.
Result: 130

Query: Also, COc1cc(C(=O)NC2(C(=O)N[C@H]3CCc4cc(-c5cc(Cl)cc(F)c5-c5noc(C)n5)ccc43)COC2)on1 [Example 53] please.
Result: 3.6

Query: Also, Cn1nnc(-c2c(F)cc(Cl)cc2-c2ccc3c(c2)SCC3NC(=O)C2(NC(=O)C(F)(F)F)CC2)n1 (racemic) [Example 22] please.
Result: 6.6

---

- Tested target: Bradykinin-1 receptor (Homo sapiens (Human))
- Test description: Calcium mobilization assay (FLIPR, Fluo-4) in GeneBLAzer Bradykinin (B1)-NFAT-bla CHO-K1 cells
- Condition label: antagonist activity; CHO-K1 cells stably overexpressing the human bradykinin 1 receptor; read-out: Ca mobilization Assay IC50
With a cut-off of 4 nM, any IC50 strictly below it is called t; any IC50 meeting it or above is called f.

Cc1cc(C(=O)NC2(C(=O)N[C@H]3CCc4cc(-c5cc(Cl)cc(F)c5-c5noc(C)n5)ccc43)COC2)on1 | f
O=C(NC1(C(=O)NC2CCCc3cc(-c4cc(Cl)cc(Cl)c4OCC(F)F)ccc32)CC1)C(F)(F)F (racemic) | f
Cc1nc(-c2c(F)cc(Cl)cc2-c2ccc3c(c2)CC[C@@H]3NC(=O)C2(NC(=O)C(F)(F)F)COC2)no1 | f
Cc1nc(-c2c(F)cc(Cl)cc2-c2ccc3c(c2)SCC3NC(=O)C2(NC(=O)C(F)(F)F)CC2)no1 (racemic) | t
COC(=O)c1c(Cl)cccc1-c1ccc2c(c1)CCCC2NC(=O)C1(NC(=O)C(F)(F)F)CC1 (racemic) | f

Kindly consider the entry below.
Query: Dear colleague, could you confirm whether IC50 of COC(=O)c1ccccc1-c1ccc2c(c1)CCC2NC(=O)C1(NC(=O)C(F)(F)F)CC1 (racemic) falls below 4 nM? Thanks.
Result: f

---

- Tested target: Bradykinin-1 receptor (Homo sapiens (Human), UniProt P46663)
- Test description: Calcium mobilization assay (FLIPR, Fluo-4) in GeneBLAzer Bradykinin (B1)-NFAT-bla CHO-K1 cells
- Type: cell-based
- Condition label: antagonist activity; CHO-K1 cells stably overexpressing the human bradykinin 1 receptor; read-out: Ca mobilization Assay IC50
Measured metric: IC50 (nM)
Reply with just the number (in nM).

Example results:
Cc1nc(-c2c(F)cc(Cl)cc2-c2cnc3c(c2)CCC3NC(=O)C2(NC(=O)c3ccnnc3)CC2)no1 (racemic) [Example 39] | 0.6
Cc1nc(-c2c(F)cc(Cl)cc2-c2ccc3c(c2)CCC3(C)NC(=O)C2(NC(=O)C(F)(F)F)CC2)no1 (racemic) | 0.6
COc1cc(C(=O)NC2(C(=O)N[C@H]3CCc4cc(-c5cc(Cl)cc(F)c5-c5noc(C)n5)ccc43)COC2)on1 | 0.4
Cc1nc(-c2c(F)cc(Cl)cc2-c2cnc3c(c2)CCC3NC(=O)C2(NC(=O)c3ccno3)CC2)no1 (racemic) | 0.3
COC(=O)c1c(Cl)cccc1-c1ccc2c(c1)CC[C@@H]2NC(=O)C1(NC(=O)C(F)(F)F)COC1 | 455
COc1ncc(C(=O)NC2(C(=O)NC3CCc4cc(-c5cc(Cl)cc(F)c5-c5noc(C)n5)cc(F)c43)CC2)cn1 (racemic) | 0.5
Cc1nc(-c2c(F)cc(Cl)cc2-c2ccc3c(c2)CC[C@@H]3NC(=O)C2(NC(=O)c3ccno3)CC2)no1 | 0.3
Cc1nc(-c2c(F)cc(Cl)cc2-c2ccc3c(c2)CC[C@@H]3NC(=O)C2(N)CC2)no1 | 5

Query: What value of measured IC50 is listed for Cn1nnc(-c2c(F)cc(Cl)cc2-c2ccc3c(c2)SCC3NC(=O)C2(N)CC2)n1 (racemic) ?
Result: 17.4

Query: Also, Cc1nc(-c2c(F)cc(Cl)cc2-c2ccc3c(c2)OCCC3NC(=O)C2(NC(=O)C(F)(F)F)CC2)no1 (racemic) please.
Result: 24.8

Query: Also, COc1ncc(C(=O)NC2(C(=O)NC3COc4cc(-c5cc(Cl)cc(F)c5-c5noc(C)n5)ccc43)CC2)cn1 (racemic) please.
Result: 0.2

Query: Also, Cc1nc(-c2c(F)cc(Cl)cc2-c2ccc3c(c2)OCC3NC(=O)C2(NC(=O)c3ccnnc3)CC2)no1 (racemic) please.
Result: 4.7

Query: Also, Cn1nnc(-c2c(F)cc(Cl)cc2-c2cnc3c(c2)CCC3NC(=O)C2(N)CC2)n1 (racemic) please.
Result: 61.1
